Provenance of the data: ChEMBL document CHEMBL1221230

Listed below: IC50 values for each entry.
Test system: Saccharomyces cerevisiae
assayComment: Antimicrobial activity against Saccharomyces cerevisiae BY724 expressing ribosomal protein cyh2 and harboring mutation in rpl28
Assay type: functional, organism-based

molecule	targetOrSystem	unitAnnotation	IC50
C[C@@H]1C[C@@H]([C@H](O)CC2CC(=O)NC(=O)C2)C(=O)[C@@H](C)C1 [CYCLOHEXIMIDE]	Saccharomyces cerevisiae	µM	52.1
C/C(=C\[C@H](C)C(=O)C[C@H](O)CC1CC(=O)NC(=O)C1)[C@@H]1OC(=O)/C=C/CC/C=C/C=C\[C@@H]1C	Saccharomyces cerevisiae	µM	6.53

====

Tested on: Saccharomyces cerevisiae
assayComment: Antimicrobial activity against Saccharomyces cerevisiae BY740 expressing ribosomal protein cyh2 and harboring mutation in rpl28
Format: functional, organism-based

compound	targetOrSystem	IC50, µM
C[C@@H]1C[C@@H]([C@H](O)CC2CC(=O)NC(=O)C2)C(=O)[C@@H](C)C1 [CYCLOHEXIMIDE]	Saccharomyces cerevisiae	17.3
C/C(=C\[C@H](C)C(=O)C[C@H](O)CC1CC(=O)NC(=O)C1)[C@@H]1OC(=O)/C=C/CC/C=C/C=C\[C@@H]1C [LACTIMIDOMYCIN]	Saccharomyces cerevisiae	1.21

====

assayComment: Binding affinity to 60S ribosome E-site by footprinting assay
pKd: −log10 of the molar value.
quantity: pKd

compound	quantity	number
C/C(=C\[C@H](C)C(=O)C[C@H](O)CC1CC(=O)NC(=O)C1)[C@@H]1OC(=O)/C=C/CC/C=C/C=C\[C@@H]1C [LACTIMIDOMYCIN]	pKd	6.30
C[C@@H]1C[C@@H]([C@H](O)CC2CC(=O)NC(=O)C2)C(=O)[C@@H](C)C1 [CYCLOHEXIMIDE]	pKd	4.82

====

Listed below: IC50 values for each entry.
Tested on: HeLa
assayComment: Inhibition of transcriptional activity in human HeLa cells assessed as [3H]uridine utilization after 2 hrs by scintillation counting
Format: functional, cell-based
Numbered stars: 1 amine (or outer) side, 2 acyl side, 3 side chain; on linkers, the order of the positions; unused ones are H or OH. Bridge positions count the residues as written; N and C are the ends. Square brackets hold non-standard residues; d marks the D form. Peptide text beside a SMILES is read from it. I, II: the chains in the order shown. Actinocin(1to9) = Cc1c2oc3c(C)ccc(C(=O)[*:2])c3nc-2c(C(=O)[*:1])c(N)c1=O; NMeV = CN[C@H](C(=O)O)C(C)C; Sar = CNCC(=O)O

compound	IC50
CO[C@H]1/C=C/CC/C=C/C(=O)O[C@@H](/C(C)=C/[C@H](C)C(=O)/C=C/CC2CC(=O)NC(=O)C2)[C@@H](C)[C@@H]1O [DIDEHYDRO ISOMIGRASTATIN]	> 10 µM
C[C@@H]1C[C@@H]([C@H](O)CC2CC(=O)NC(=O)C2)C(=O)[C@@H](C)C1 [CYCLOHEXIMIDE]	2.88 µM
C/C(=C\[C@H](C)C(=O)C[C@H](O)CC1CC(=O)NC(=O)C1)[C@@H]1OC(=O)CCCC/C=C/C=C\[C@@H]1C	> 10 µM
CO[C@H]1/C=C/CC/C=C/C(=O)O[C@@H](/C(C)=C/[C@H](C)C(=O)CCCC2CC(=O)NC(=O)C2)[C@@H](C)[C@@H]1O	> 10 µM
C/C(=C\[C@H](C)C(=O)C[C@H](O)CC1CC(=O)NC(=O)C1)[C@@H]1OC(=O)/C=C/CC/C=C/C=C\[C@@H]1C	> 10 µM
Cc1c2oc3c(C)ccc(C(=O)N[C@@H]4C(=O)N[C@H](C(C)C)C(=O)N5CCC[C@H]5C(=O)N(C)CC(=O)N(C)[C@@H](C(C)C)C(=O)O[C@@H]4C)c3nc-2c(C(=O)N[C@@H]2C(=O)N[C@H](C(C)C)C(=O)N3CCC[C@H]3C(=O)N(C)CC(=O)N(C)[C@@H](C(C)C)C(=O)O[C@@H]2C)c(N)c1=O [DACTINOMYCIN] (I: T[dV]P[Sar][NMeV] / II: T[dV]P[Sar][NMeV]; ester I:1-I:C, II:1-II:C; linker I:N-II:N via Actinocin(1to9))	0.262 µM
